Outcome label depends on logP relative to 0.9: at/above gives Satisfied, below gives Not satisfied.

compound	label_class
CN(C)C(=O)OCc1ccc(OC(=O)N(C)C)cc1	Satisfied
Cn1nc2ccccc2n1	Satisfied
O=C(O)COc1ccccc1F	Satisfied
NS(=O)(=O)c1cc2c(cc1Cl)NC(CCl)NS2(=O)=O (stereo not drawn)	Not satisfied
NS(=O)(=O)Nc1ccccc1	Not satisfied
N#CCN	Not satisfied
CC(=O)C(Cc1ccccc1)C(C)=O	Satisfied
CC(=O)c1ccc(NC=O)cc1	Satisfied

* * *

attribute_measured: logP

compound	attribute_measured	measured_value
CON(C)/N=N/c1ccc(C(N)=O)cc1	logP	1.19
c1ccc(-c2ccncn2)cc1	logP	1.92
Nc1cc(Cl)c(Cl)cc1N	logP	2
NC(=O)Nc1ccc(F)cc1	logP	1.04
O=C(O)c1ccccc1S	logP	2.39
COc1ccc(N=NN(C)C)cc1	logP	2.99
OCCCCc1ccncc1	logP	0.9
FC(F)(F)C(Cl)Br (stereo unspecified)	logP	2.3
COc1cc(Cl)cc(Cl)c1	logP	3.8
N#Cc1ccccc1	logP	1.56
O=C(NC(CO)C(O)c1ccc(-c2ccccc2)cc1)C(Cl)Cl (stereo unspecified)	logP	2.86
CCCCOC(=O)c1ccc(S(N)(=O)=O)cc1	logP	2.34
N#Cc1ccncc1C#N	logP	0.24
CNC(=O)Oc1ccc(Cl)cc1	logP	2.01
CC(C)c1ccccc1O	logP	2.88
CC(=O)N(C)c1ccccc1	logP	1.12

* * *

Grouping rule (logP): bottom: < 1; middle: ≥ 1 and < 2; top: ≥ 2

molecule	label_class
CN(C)CCNC(=O)c1ccccc1	middle
C#CC(C)(C)O	bottom
C1=CCOC1	bottom
CCC(N)Cc1ccccc1 (stereo unspecified)	top
Oc1ccccc1C=Nc1ccccc1	top
O=[N+]([O-])c1ccsc1	middle
CCOc1cccnc1	middle
OCCCc1ccncc1	bottom
CON(C)C(=O)Nc1ccc(OCCc2ccc(C)cc2)cc1	top
Cn1c(=O)ccc2ccccc21	middle
Nc1cn[nH]c1	bottom
N#Cc1ccc([N+](=O)[O-])cc1	middle
CCCc1ccc(S(N)(=O)=O)cc1	middle
Oc1cnc2ccccc2c1	top
COP(=O)(OC)OC=C(Cl)Cl	middle
Brc1ccc2[nH]ccc2c1	top
CCc1ccc2c(c1)C(=O)c1ccc(NC(C)=O)cc1S2(=O)=O	top
Cc1[nH]cnc1CSCCNC1=NS(=O)(=O)CCN1	bottom
CC(=O)OCCBr	middle
CCN(CC)c1nc(Cl)nc(NC(C)C)n1	top
Oc1ccccc1F	middle
O=C1NC(=O)C(c2ccccc2)(c2ccccc2)N1	top
CON(C)C(=O)Nc1cccc(O)c1	bottom
COc1cccc(OC)c1C(=O)N[C@@H]1C(=O)N2[C@@H]1SC(C)(C)[C@@H]2C(=O)O	middle
COc1cc2c(c(OC)c1OC)-c1ccc(O)c(=O)cc1C(NC(C)=O)CC2 (stereo unspecified)	middle
CC1(C)S[C@@H]2[C@H](NC(=O)C(C(=O)O)c3ccccc3)C(=O)N2[C@H]1C(=O)O (stereo partly specified)	middle
O=[N+]([O-])c1cccc2cccnc12	middle
CC1CN(N=O)CC(C)N1 (stereo unspecified)	bottom
O=NN1CC=CC1	bottom
CC(C)N(N=O)C(C)C	middle

* * *

Parameter: logP. Scope: all listed entries.
attribute_measured: logP

molecule	attribute_measured	measured_value
COc1ccccc1S(I)=C(N(C)C)N(C)C (centres undefined)	logP	-0.52
COC(=O)CCC(=O)OC	logP	0.35
Cc1n[nH]c(C(=O)N(C)Cc2ccccc2)c1[N+](=O)[O-]	logP	1.65
CCCCCNC(=O)c1ccc(S(N)(=O)=O)cc1	logP	1.51
CCCCOC(N)=O	logP	0.85
CCN(CC)CCOC(=O)c1ccc(N)cc1Cl	logP	2.86
CCCC(N)=O	logP	-0.21
O=[N+]([O-])c1cc[n+]([O-])c2ccccc12	logP	1.09
CCOC(=O)n1cnc(CC(NC(=O)C2CCC(=O)N2)C(=O)N2CCCC2C(N)=O)c1 (centres undefined)	logP	-1.3
CN(C)c1cccnc1	logP	1.41
CCOC(=O)C(=Cc1cccc(OC)c1)C(C)=O	logP	2.34
CN(Cc1ccccc1)c1ccccc1	logP	4.22
CCO[Si](C)(C)OCC	logP	0.61
O=C(c1ccco1)C(O)c1ccco1 (centres undefined)	logP	0.54

* * *

Hi! Just check whether logP is below 1. Below gives True, equal or above gives False.

compound	label_class
Cc1ccccc1C(O)c1ccccc1 (stereo not drawn)	False
NC(=O)Cc1cccs1	True
COP(=O)(OC)SCn1nnc2ccccc2c1=O	True
Fc1cccc2cccnc12	False
Cc1ccc(NC(=O)N(C)C)cc1	False
CCCOC(=O)c1cccnc1	False
CNC(=O)c1ccoc1	True
CCCCCCCCO	False
CCOP(=S)(OCC)Oc1ccc(SC)cc1	False
Clc1cc(Cl)c(Cl)c(Cl)c1Cl	False
N#CCC(=O)NC(CO)C(O)c1ccc([N+](=O)[O-])cc1 (stereo not drawn)	True
CC(=O)c1cccc(C(=O)O)c1	False
CCCCOc1ccc([N+](=O)[O-])cc1	False
CCc1ccc(N2C(=O)CCC2=O)cc1	False
CN(C)c1nc(N(C)C)nc(N(C)C)n1	False
FC(F)(F)Br	False
Nc1ncccn1	True
CC(=O)ONc1ccnc2ccccc12	True
Nc1nc2nn[nH]c2c(=O)[nH]1	True
Cc1cc(C)c(N(C)C)c(C)c1	False
C=CCOC(C)=O	True
COC(=O)c1ccc[nH]1	False
CNC1=C(N2CC2)C(=O)C(NC)=C(N2CC2)C1=O	True
O=C(CN1CCCCC1)Nc1ccc(Br)cc1	False
CN1C(=O)CC(=O)NC1=O	True
Oc1cccc(C(F)(F)F)c1	False
CCN(CC)CC(F)(F)F	False
CC(=O)Oc1cccc([N+](=O)[O-])c1	False
O=C(O)COc1ccccc1O	True
NS(=O)(=O)c1ccc(S(N)(=O)=O)cc1	True

* * *

# logP values compiled below
attribute_measured: logP

molecule	measured_value
S=C=Nc1ccc2ccccc2c1	4.34
CN(C)C(=O)c1ccccc1O	0.44
O=C(O)COc1ccc(Cl)c(Br)c1	2.75
c1ccc(Cc2cc(-c3ccccc3)nnc2NCCN2CCOCC2)cc1	3.65
COc1ccccc1C(=O)NCCN(C)C	1.14
c1ccc(P(c2ccccc2)c2ccccc2)cc1	5.69
O=C(O)CNC(=O)c1ccccc1O	0.95
Clc1nc(Cl)c(Cl)[nH]1	1.85
c1ccc(-c2csnn2)cc1	2.42
c1ccc(CN2CCOCC2)cc1	1.58
Cc1ccc(N)c(C)c1	1.68
Oc1c(Cl)cc(Cl)c(Cl)c1Cc1c(O)c(Cl)cc(Cl)c1Cl	7.54
O=C1CC(Sc2ccccn2)N1 (stereo not given)	0.61
CC(C)(C)C1CCN(N=O)CC1	2.54
CNC(=O)Oc1cc(C)c(Cl)cc1Cl	3

* * *

Listed below: logP values for each entry.

given_smiles	logP
CNC(=O)COc1ccccc1	1.02
COc1cc(NCc2ccc3nc(N)nc(N)c3c2C)cc(OC)c1OC	2.55
CCC(=O)c1ccccc1	2.19
Nc1ccc(S(=O)(=O)Nc2cnc3ccccc3n2)cc1	1.68
CC(=O)C(C)=O	-1.34
O=C(O)Cc1ccccc1	1.41
NCCc1ccc(O)c(O)c1	-0.98
CCCCCCCCCC(=O)N1CCCC1=O	4.33

* * *

Peptide text beside a SMILES is read from it.

compound	logP
COC(=O)CCCC(=O)OC	0.62
OC[C@@H](O)[C@@H](O)CO	-2.29
OCc1ccoc1	0.3
Cn1cccc1C=NNC(=O)Nc1ccccc1	2.71
NC(=O)CCNC(=O)C(F)(F)Cn1ccnc1[N+](=O)[O-]	-0.95
CCc1cccs1	2.87
CCCOP(=O)(OCCC)OCCC	1.87
NCCNC(=O)c1ccccc1	0.06
Nc1nc(N)nc(-c2cccc(F)c2)n1	1.73
C=C1C(=O)OC2CC(C)C3C=CC(=O)C3(C)C(O)C12 (stereo not given)	0.36
CCCCCCNC(=O)c1[nH]nc(C)c1[N+](=O)[O-]	2.46
CS(=O)(=O)c1ccc(C(=O)O)cc1	0.67
O=[N+]([O-])c1cnc2ccccc2c1	1.97
c1cncc(CN2CCOCC2)c1	0.04
ClC(Cl)C(c1ccccc1)c1ccccc1	4.51
CCC(C)CC(=O)OCC1CCC(n2cnc3c(=O)[nH]cnc32)O1 (stereo not given)	1
COc1cccc(OCC(=O)O)c1	1.38
Oc1ccc(Br)cc1Br	3.22
CC(C)(C)C(=O)OCC1CCC(n2cnc3c(=O)[nH]cnc32)O1 (stereo not given)	0.6
CCO[Si](OCC)(c1ccccc1)c1ccccc1	4.92
CCOC(=O)CCc1ccccc1	2.73
ClC(Cl)(Cl)c1ccc(C(Cl)(Cl)Cl)cc1	4.62
C=CC(=O)O	0.35
C=CCc1cccc2c(=O)c(C)c(-c3ccccc3)oc12	4.67
CCN(CC)c1ccccc1	3.31
NS(=O)(=O)c1ccc(I)cc1	1.59
CCC(C)Cl (stereo not given)	2.33
C=CCC1(CC(=C)Br)C(=O)NC(=O)N(C)C1=O (stereo not given)	1.78
CC(=O)N[C@H](C(=O)N[C@@H](C)C(=O)N[C@H](C(N)=O)C(C)C)C(C)C (Ac-Val-Ala-Val-NH2)	-0.67
CC(=O)Nc1ncnc2c1ncn2C	-0.41
